Let's look at some molecules and their measured pIC50.
target: human LPAR1 (Homo sapiens); construct: host or cells: TangoEDG2-bla U2OS cells; assay: Arrestin assay (Arrestin Reporter EDG2-bla U2OS), inhibition of LPA-stimulated signal; format: cell-based; conditions: TangoEDG2-bla U2OS cells expressing human LPAR1; 0.25 μM LPA; read-out: Arrestin Reporter EDG2-bla U2OS Human Merged IC50
Sequence (Q92633 whole entry): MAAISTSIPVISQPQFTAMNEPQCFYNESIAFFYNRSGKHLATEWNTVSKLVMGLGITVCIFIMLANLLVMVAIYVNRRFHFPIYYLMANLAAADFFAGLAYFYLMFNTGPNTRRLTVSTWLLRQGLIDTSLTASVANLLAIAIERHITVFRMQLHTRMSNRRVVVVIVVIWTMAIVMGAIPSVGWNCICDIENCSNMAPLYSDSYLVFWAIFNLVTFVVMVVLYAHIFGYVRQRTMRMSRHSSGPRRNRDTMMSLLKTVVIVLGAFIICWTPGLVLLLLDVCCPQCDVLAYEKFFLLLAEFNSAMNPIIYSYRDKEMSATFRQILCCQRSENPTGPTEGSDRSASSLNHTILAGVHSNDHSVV
The scale used: pIC50 is minus the common logarithm of the concentration in molar units.

Take a look at these entries with their results.
- molecule: "CCOC(CN1CCC(C(=O)Nc2ccc(Cl)cc2OC(F)F)(n2nccc2C(C)C)CC1)C(=O)O (stereo not shown)"
  observed: 7.15
- molecule: "CC(C)c1ccnn1C1(C(=O)Nc2ccc(Cl)cc2OC(F)F)CCN(C[C@H](CN2CCOCC2)C(=O)O)CC1"
  observed: 7.21
- molecule: "CC(C)c1ccnn1C1(C(=O)Nc2ccc(Cl)cc2OC(F)F)CCN(CC2(C(=O)O)CCCCC2)CC1"
  observed: 7.72

Request: // query pIC50 value for entry CC(C)c1ccnn1C1(C(=O)Nc2ccc(Cl)cc2OC(F)F)CCN(C[C@H](C(=O)O)c2cccnc2)CC1
Response: 7.55

----------
target: human LPAR1 (Homo sapiens); construct: host or cells: TangoEDG2-bla U2OS cells; experiment: Arrestin assay (Arrestin Reporter EDG2-bla U2OS), inhibition of LPA-stimulated signal; assay type: cell-based; details: TangoEDG2-bla U2OS cells expressing human LPAR1; 0.25 μM LPA; read-out: Arrestin Reporter EDG2-bla U2OS Human Merged IC50
quantity: pIC50
The scale used: pIC50 is minus the common logarithm of the concentration in molar units.

Take a look at these entries with their results.
- compound: "CO[C@]1(C(=O)O)C[C@@H](N2CCC(C(=O)Nc3ccc(Cl)cc3OC(F)F)(n3nccc3C(C)C)CC2)C1 (single isomer, unassigned)"
  measuredOn: "human LPAR1 (Homo sapiens)"
  pIC50: 7.04
- compound: "CC(C)c1ccnn1C1(C(=O)Nc2ccc(Cl)cc2OC(F)F)CCN(C[C@@H](C(=O)O)C2COCCOC2)CC1"
  measuredOn: "human LPAR1 (Homo sapiens)"
  pIC50: 7.73
- compound: "CCOC(=O)N1CC[C@](CN2CCC(C(=O)Nc3ccc(Cl)cc3OC(F)F)(n3nccc3C(C)C)CC2)(C(=O)O)C1"
  measuredOn: "human LPAR1 (Homo sapiens)"
  pIC50: 8.17
- compound: "CC(C)c1ccnn1C1(C(=O)Nc2ccc(Cl)cc2OC(F)F)CCN(CC2(C(=O)O)CCN(C(=O)CC34CC(C3)C4)CC2)CC1"
  measuredOn: "human LPAR1 (Homo sapiens)"
  pIC50: 7.87
- compound: "CC(C)c1ccnn1C1(C(=O)Nc2ccc(Cl)cc2OC(F)F)CCN(CC2(C(=O)O)CCN(C(=O)C3CCOCC3)CC2)CC1"
  measuredOn: "human LPAR1 (Homo sapiens)"
  pIC50: 6.98

Request: // query pIC50 value for entry CC(C)c1ccnn1C1(C(=O)Nc2ccc(Cl)cc2OC(F)F)CCN(CC2(C(=O)O)CCOCC2)CC1
Response: 7.83

Request: // query pIC50 value for entry CC(C)c1ccnn1C1(C(=O)Nc2ccc(Cl)cc2OC(F)F)CCN(CC(C(=O)O)C2CCOC2)CC1 (stereo not drawn)
Response: 7.33

Request: // query pIC50 value for entry COc1cnn([C@@H](CN2CCC(C(=O)Nc3ccc(Cl)cc3OC(F)F)(n3nccc3C(C)C)CC2)C(=O)O)c1
Response: 7.51

Request: // query pIC50 value for entry CCOC(=O)N1CCC(CN2CCC(C(=O)Nc3ccc(Cl)cc3OC(F)F)(n3nccc3C(C)C)CC2)(C(=O)O)CC1
Response: 7.61

Request: // query pIC50 value for entry CC(C)c1ccnn1C1(C(=O)Nc2ccc(Cl)cc2OC(F)F)CCN(CC2(C(=O)O)CCN(c3cnccn3)CC2)CC1
Response: 7.96
